- System: 3D7-MR4 trophozoite parasite-infected RBCs
- ASSAY_OVERVIEW: Metabolomic profiling (hydrophilic metabolite changes, UHPLC-MS)
- Assay type: cell-based, Plasmodium falciparum
- ASSAY_CONDITIONS: metabolite nicotinate
Record form. Attribute: Log2(fold change) nicotinate. Fill in for each entry.

Inquiry: Can you share its Log2(fold change) nicotinate? I mean this compound: COc1ccc(C2c3ccc4ccccc4c3Oc3ncn(CCCN(C)C)c(=N)c32)cc1 (stereo not drawn)
Reply text: -0.1938

Inquiry: Can you share its Log2(fold change) nicotinate? I mean this compound: CC(C)(C)OC(=O)N1CCN(c2ccccc2NC(=O)c2cccc(C(F)(F)F)c2Oc2ccc(F)cc2)CC1
Reply text: -0.1069

Inquiry: Can you share its Log2(fold change) nicotinate? I mean this compound: Cc1ccc(Oc2ncccc2C(=O)Nc2cccc3cccnc23)c(C)c1
Reply text: -0.1328

Inquiry: Can you share its Log2(fold change) nicotinate? I mean this compound: O=C1C(O)=C([C@H]2CC[C@H](c3ccc(Cl)cc3)CC2)C(=O)c2ccccc21 [Atovaquone, reference compound]
Reply text: -0.1572

Inquiry: Can you share its Log2(fold change) nicotinate? I mean this compound: CN(C)c1ccc2nc3ccc(=[N+](C)C)cc-3sc2c1 [Methylene blue, reference compound]
Reply text: -0.3017

Inquiry: Can you share its Log2(fold change) nicotinate? I mean this compound: CC(C)(C)c1ccc2c(c1)CN(Cc1ccc(Cl)cc1)CO2
Reply text: -0.1414

Inquiry: Can you share its Log2(fold change) nicotinate? I mean this compound: CC(C)(C)NCc1cc(Nc2ccnc3cc(Cl)ccc23)c2c(c1O)CCCC2 [Naphtoquine, Naphthoquine, reference compound]
Reply text: -0.5500

Inquiry: Can you share its Log2(fold change) nicotinate? I mean this compound: CCN(CC)CCn1c(=N)n(CC(O)c2ccc(Cl)c(Cl)c2)c2ccccc21.Cl (stereo not drawn)
Reply text: 0.0498

Inquiry: Can you share its Log2(fold change) nicotinate? I mean this compound: Clc1ccc2c(N3CCN(CCCN4CCN(c5ccnc6cc(Cl)ccc56)CC4)CC3)ccnc2c1 [Piperaquine, reference compound]
Reply text: -0.4222

Inquiry: Can you share its Log2(fold change) nicotinate? I mean this compound: C[C@H]1Cc2c([nH]c3cc(Cl)c(F)cc23)[C@@]2(N1)C(=O)Nc1ccc(Cl)cc12 [KAE609, reference compound]
Reply text: 0.7800

Inquiry: Can you share its Log2(fold change) nicotinate? I mean this compound: FC(F)(F)c1ccc(Nc2cc3[nH]c(-c4cccc(C(F)(F)F)c4)nc3cn2)nc1
Reply text: -0.2143

Inquiry: Can you share its Log2(fold change) nicotinate? I mean this compound: Cc1cc(Nc2ccc(OCc3ccccc3)cc2)nc2cc(O)ccc12
Reply text: 0.1126
